The measured values listed here are drawn from patent US6534079B1.

- Test Protocol: Release of active in wind tunnel (residual analysis)
- Assay type: physicochemical
- Experimental Parameters: 5 mg transfluthrin coated on Barex (103 sq. cm.) from the named solvent
Lab note: anything with % Evap Barex at or over 60% counts as 1 (yes); the rest go in 0 (no).

Some solved cases for reference:
CCOC(C)=O [Ethyl Acetate] ... 0 (no)
CC(C)O ... 0 (no)
CCO ... 1 (yes)

Now, please, on to the next compound.
Hi, just wondering whether COC(C)=O [Methyl Acetate] shows % Evap Barex of 60% or higher.
0 (no)

----------
I'd be grateful if you could share measured % Evap Barex for these entries.
- Test Protocol: Release of active in wind tunnel (residual analysis)
- Type: physicochemical
- Experimental Parameters: 5 mg transfluthrin coated on Barex (103 sq. cm.) from the named solvent
Numbers only, in %.

Worked examples, 3 compounds total:
CCC(C)O (centres unmarked) ... 60.3
Cc1ccccc1 ... 60.9
CC(C)=O ... 58.3

Your task in this section: give % Evap Barex for each listed record.
1. CCCCCCC
2. CO

1. 86.8
2. 58.3

----------
I'd be grateful if you could share measured % Evap Barex for these entries.
- Test Protocol: Release of active in wind tunnel (residual analysis)
- Format: physicochemical
- Experimental Parameters: 5 mg transfluthrin coated on Barex (103 sq. cm.) from the named solvent
One number for each entry, in %.

C1CCOC1 [THF] ... 59.6
CCC(C)=O [MEK] ... 67.5

Let's switch to this molecule now.
Look up % Evap Barex: CC(=O)OCC(C)C [Isobutyl Acetate]
70.9
